Data provenance: paper PMC10663500

subject of test: T1, human programmed cell death protein 1 (hPD-1) C93S (aa 24-167) (Homo sapiens, UniProt Q15116, C93S)
T1 construct: made as a fusion with a TEV site and human Fc; the Fc was cut off with TEV protease; source: Expi293F, purified (Protein A, TEV cleavage of Fc, SEC; monomer fractions); not shown: Fc (human), C-terminal, cleaved
assay: SPR; Carterra LSA; Fab from the ammonium sulfate precipitate of the culture supernatant immobilised on a NiHC200M chip; hPD-1 (1-1024 nM) or mPD-1-Fc (4-1024 nM) as analyte, fourfold dilution series, no regeneration; HBS-EP pH 7.4, 25 °C; medians over the spots of a construct, KD = koff/kon
condition notes: one partner purified
recorded metric: koff

>>> reported_measurement("toripalimab Fab L.I29A (Fab, V domains shown, as the heavy chain of Sm3; light chain of Sm3 with this change; numbers count from the chain's first residue; source: Brevibacillus, culture supernatant (ammonium sulfate precipitate); not shown: 6xHis, C-terminal, kept; 6xHN, C-terminal, kept) VH: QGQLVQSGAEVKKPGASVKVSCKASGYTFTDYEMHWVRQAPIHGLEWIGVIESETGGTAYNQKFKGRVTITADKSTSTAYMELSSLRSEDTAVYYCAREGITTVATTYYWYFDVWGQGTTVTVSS VL: DVVMTQSPLSLPVTLGQPASISCRSSQSAVHSNGNTYLEWYLQKPGQSPQLLIYKVSNRFSGVPDRFSGSGSGTDFTLKISRVEAEDVGVYYCFQGSHVPLTFGQGTKLEIK")
"< 1e-05 s⁻¹"

Q. Field request: koff | item: toripalimab Fab L.L101N (Fab, V domains shown, as the heavy chain of Sm3; light chain of Sm3 with this change; numbers count from the chain's first residue; source: Brevibacillus, culture supernatant (ammonium sulfate precipitate); not shown: 6xHis, C-terminal, kept; 6xHN, C-terminal, kept) VH: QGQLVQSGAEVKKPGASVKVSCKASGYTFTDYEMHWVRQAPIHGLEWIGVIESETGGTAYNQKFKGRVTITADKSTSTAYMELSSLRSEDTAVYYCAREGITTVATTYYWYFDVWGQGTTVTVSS VL: DVVMTQSPLSLPVTLGQPASISCRSSQSIVHSNGNTYLEWYLQKPGQSPQLLIYKVSNRFSGVPDRFSGSGSGTDFTLKISRVEAEDVGVYYCFQGSHVPNTFGQGTKLEIK
A. < 1e-05 s⁻¹

Q. Which koff value is on record for toripalimab Fab H.T107Y (Fab, V domains shown, heavy chain of Sm3 with this change; numbers count from the chain's first residue; as the light chain of Sm3; source: Brevibacillus, culture supernatant (ammonium sulfate precipitate); not shown: 6xHis, C-terminal, kept; 6xHN, C-terminal, kept) VH: QGQLVQSGAEVKKPGASVKVSCKASGYTFTDYEMHWVRQAPIHGLEWIGVIESETGGTAYNQKFKGRVTITADKSTSTAYMELSSLRSEDTAVYYCAREGITTVATYYYWYFDVWGQGTTVTVSS VL: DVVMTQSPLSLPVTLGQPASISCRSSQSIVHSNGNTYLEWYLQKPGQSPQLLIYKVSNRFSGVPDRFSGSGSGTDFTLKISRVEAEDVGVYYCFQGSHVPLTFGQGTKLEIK ?
A. < 1e-05 s⁻¹

Q. Dear colleague, I am looking for the recorded koff of the following binder: toripalimab Fab L.P100E (Fab, V domains shown, as the heavy chain of Sm3; light chain of Sm3 with this change; numbers count from the chain's first residue; source: Brevibacillus, culture supernatant (ammonium sulfate precipitate); not shown: 6xHis, C-terminal, kept; 6xHN, C-terminal, kept) VH: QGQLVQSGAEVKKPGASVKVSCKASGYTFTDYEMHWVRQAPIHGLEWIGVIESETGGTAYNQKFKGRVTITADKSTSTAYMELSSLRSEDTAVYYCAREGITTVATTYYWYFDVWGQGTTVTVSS VL: DVVMTQSPLSLPVTLGQPASISCRSSQSIVHSNGNTYLEWYLQKPGQSPQLLIYKVSNRFSGVPDRFSGSGSGTDFTLKISRVEAEDVGVYYCFQGSHVELTFGQGTKLEIK
A. < 1e-05 s⁻¹

Q. Dear colleague, I am looking for the recorded koff of the following binder: toripalimab Fab H.Y109A (Fab, V domains shown, heavy chain of Sm3 with this change; numbers count from the chain's first residue; as the light chain of Sm3; source: Brevibacillus, culture supernatant (ammonium sulfate precipitate); not shown: 6xHis, C-terminal, kept; 6xHN, C-terminal, kept) VH: QGQLVQSGAEVKKPGASVKVSCKASGYTFTDYEMHWVRQAPIHGLEWIGVIESETGGTAYNQKFKGRVTITADKSTSTAYMELSSLRSEDTAVYYCAREGITTVATTYAWYFDVWGQGTTVTVSS VL: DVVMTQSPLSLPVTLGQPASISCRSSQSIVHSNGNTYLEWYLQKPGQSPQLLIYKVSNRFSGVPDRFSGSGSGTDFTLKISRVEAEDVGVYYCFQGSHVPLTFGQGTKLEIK
A. 1.41e-05 s⁻¹
